# PROTOCOL NOTES: method code SF, from DOI: 10.1002/qsar.19890080404
RECORDED METRIC: logP

Use these answered entries as a reference point.
SMILES DATA: N#Cc1ccc[nH]1
RECORDED METRIC: logP
QUANTITATIVE READOUT: 1.13

SMILES DATA: O=Cc1c[nH]c2ccccc12
RECORDED METRIC: logP
QUANTITATIVE READOUT: 1.69

SMILES DATA: CC(=O)Nc1ccc2[nH]c(C)cc2c1
RECORDED METRIC: logP
QUANTITATIVE READOUT: 1.22

SMILES DATA: O=C(O)c1c[nH]c2ccccc12
RECORDED METRIC: logP
QUANTITATIVE READOUT: 1.99

SMILES DATA: CC(=O)c1c[nH]c2ccccc12
RECORDED METRIC: logP
QUANTITATIVE READOUT: 2.06

[A] CS(=O)(=O)c1cccs1
[B] CCOC(=O)c1c[nH]cc1C
[C] O=Cc1ccc[nH]1
[D] NC(=S)c1cccs1
Exam item: list the entries in increasing order of logP. Arrange the labels as the request states and list them. A, C, D, B
(A: 0.38, C: 0.64, D: 1.34, B: 2.05)

###

RECORDED METRIC: logP

SMILES DATA: O=[N+]([O-])C=Cc1ccco1
QUANTITATIVE READOUT: 1.56
--
SMILES DATA: NC(=O)c1cccc2[nH]ccc12
QUANTITATIVE READOUT: 0.66
--
SMILES DATA: CCOC(=O)c1ccoc1
QUANTITATIVE READOUT: 1.78

[a] N#Cc1ccc2cc[nH]c2c1
[b] NCc1ccco1
When a and b are compared, which has the higher number for logP? Please reply using the label of the selected record. a

###

RECORDED METRIC: logP

SMILES DATA: CCOC(=O)c1cc2ccccc2[nH]1
logP: 3.18

[P] O=C(c1c[nH]c2ccccc12)C(F)(F)F
[Q] N#Cc1ccc2[nH]ccc2c1
Hello, I am sorting some records. Could you say if P or Q has the smaller logP value? Selection: enter the item's label. Q
